The reported measurements were obtained from patent US10633363B2.

PROTOCOL_TEXT: Cellular toxicity on J-lat cells (% viable cells)
Type: cell-based
CONDITIONS: stated for J-lat and human PBMC together; cell type not specified; read-out: cytotoxicity CC50
QUANTITY_MEASURED: CC50 (µM)
Give just the numeric value; µM need not be written.

Reported CC50, molecule `Cn1cc(C(=O)/C(C#N)=N/Nc2ccc(Cl)c(C(F)(F)F)c2)c2ccccc21` : ____ 75
